Test: NCI Yeast Anticancer Drug Screen. Data for the rad52 strain (AID 147);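 also: 0% = growth of vehicle-treated control cultures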
Settings: S. cerevisiae rad52 mutant growth inhibition; at 3.7 µM; active compounds read high
This is part of a sample that, as a whole, favours compounds with a hit. Of some 79,000 tested, about 15% had one in any assay.
As shown below, each of these compounds has a reported growth inhibition value.
# value in %; strip the unit string

Field: example entries. Status: answers known.
>>> readout_value("COc1cccc2c1C(=O)c1c(O)c3c(c(O)c1C2=O)C[C@@](O)(C(C)=O)C[C@@H]3OC1CC(OC(C)=O)C(OC(C)=O)C(C)O1 (stereo not given in full)")
-7
>>> readout_value("CNC(=O)OCc1c(COC(=O)NC)c(-c2ccc(Cl)cc2)n2c1CCC2")
-31

### Prompt Please report the recorded growth inhibition for Cc1c2ccnc(C(=O)NCCN(C)C)c2cc2c3cc(O)ccc3n(C)c12 .
### Response 23

### Prompt And the next one, NNC(=O)CCc1cc2ccccc2c2ccccc12 ?
### Response -10

### Prompt And the next one, Nc1nc(N)c2nc(CNc3ccc(C(=O)NC(CCC(=O)O)C(=O)O)cc3F)cnc2n1 (stereo not given) ?
### Response 42

### Prompt And the next one, COC(=O)CC1CCc2c(ccc3ccccc23)C1(C)C(=O)OC (stereo not given) ?
### Response 2

### Prompt And the next one, Cc1c2cc[n+](Cc3ccc(I)cc3)cc2c(C)c2c1[nH]c1ccccc12 ?
### Response 36

### Prompt And the next one, CCCCCCN(CCCCCC)CC(O)c1ccnc2ccc(OC)cc12 (stereo not given) ?
### Response -2

### Prompt And the next one, CCCC/C=C/C(C)(C(=O)OCC)C(=O)OCC ?
### Response -5

### Prompt And the next one, COc1cc2ccnc(-c3c4ccccc4c(N)c4c(OC)c(OC)ccc34)c2cc1OC ?
### Response 20

----------
Experiment: NCI Yeast Anticancer Drug Screen. Data for the mlh1 strain (AID 171);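 also: 0% = growth of vehicle-treated control cultures of the same strain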
Conditions: S. cerevisiae mlh1 strain growth inhibition; at 100.0 µM; active compounds read high
Compounds without any hit were thinned out: in the full panel of roughly 79,000, 15% have a hit.
As shown below, each of these molecules has a reported growth inhibition value.
# value in %; strip the unit string

>>> readout_value("CC1OC(O[C@H]2/C=C/C=C/C=C/C=C/C=C/C=C/C=C/[C@H](C)[C@@H](O)[C@@H](C)[C@H](C)OC(=O)C[C@H](O)C[C@H](O)CC[C@@H](O)[C@H](O)C[C@H](O)C[C@]3(O)C[C@H](O)[C@@H](C(=O)O)[C@H](C2)O3)C(O)C(N)C1O (stereo partly drawn)")
98

### Prompt Please report the recorded growth inhibition for C=C(C(=C)n1nnc(C(=O)OC)c1C(=O)OC)n1nnc(C(=O)OC)c1C(=O)OC .
### Response 0

### Prompt And the next one, CC(=O)Nc1ccc2c(c1)-c1ccccc1C2=O ?
### Response 82

### Prompt And the next one, CN(C)CCOC1(Cc2ccc(F)cc2)CCC(C(C)(C)C)CC1 (stereo not drawn) ?
### Response 98

### Prompt And the next one, c1ccc(CCN2CCc3ccccc3C2)cc1 ?
### Response 11

### Prompt And the next one, CC1CC[C@]2(C(=O)O)CCC3(C)C(=CC(=O)C4[C@@]5(C)CCC(=O)C(C)(C)C5CC[C@]43C)[C@@H]2[C@H]1C (stereo partly drawn) ?
### Response 96

### Prompt And the next one, CCc1nc2ccc(NCCN(C)C)c3c(=O)c4ccccc4n1c23 ?
### Response 40

### Prompt And the next one, CCCCCCSc1ncnc2[nH]ncc12 ?
### Response -3

### Prompt And the next one, S=c1[nH]c2cc3ccccc3cc2[nH]1 ?
### Response 34

### Prompt And the next one, O=c1ssc(=Nc2ccccc2)n1-c1ccccc1 ?
### Response 48

### Prompt And the next one, CC(O)=NC(Cc1ccc2ccccc2c1)C(O)=NC(Cc1ccc(Cl)cc1)C(O)=NC(Cc1c[nH]c2ccccc12)C(O)=NC(CO)C(O)=NC(Cc1ccc(O)cc1)C(O)=NC(CCCN=C(N)N)C(O)=NC(CC(C)C)C(O)=NC(CCCN=C(N)N)C(=O)N1CCCC1C(O)=NC(C)C(=N)O (stereo not drawn) ?
### Response 17

### Prompt And the next one, Cc1ccc2c3ccc4c(c3n(C)c2c1)C(=O)C=CC4=O ?
### Response 81

### Prompt And the next one, COc1ccc(C/C=N/Nc2ccc([N+](=O)[O-])cc2)cc1OC ?
### Response 31

### Prompt And the next one, COC(=O)CC1(O)C(/C=C/c2ccccc2)C(C(=O)OC)C(=O)C(C(=O)OC)C1C(=O)OC (stereo not drawn) ?
### Response 5

### Prompt And the next one, CCOC(=O)c1[nH]cc(C)c1-c1cccn1-c1ccc(Cl)cc1[N+](=O)[O-] ?
### Response 96

### Prompt And the next one, O=C1NC(SSC2=NNC3(C(=O)N2)c2ccccc2-c2ccccc23)=NNC12c1ccccc1-c1ccccc12 ?
### Response 17

### Prompt And the next one, NNC(=O)CCc1cc2ccccc2c2ccccc12 ?
### Response 99

### Prompt And the next one, CC(C)(C)[Si](C)(C)OCC1CCC(n2cnc3c(NC(=O)c4ccccc4)ncnc32)O1 (stereo not drawn) ?
### Response -1
